B1: TPR 5TU (parent)
chain: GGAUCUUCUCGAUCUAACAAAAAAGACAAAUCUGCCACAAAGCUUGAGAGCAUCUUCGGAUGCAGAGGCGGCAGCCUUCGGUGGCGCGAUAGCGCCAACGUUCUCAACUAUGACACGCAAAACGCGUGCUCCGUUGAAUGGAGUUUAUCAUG

variants of: B1; experiment: polymerase ribozyme fitness, log enrichment relative to wild type (log ratio); higher = more active; in vitro selection for triplet polymerase activity
Fewer inactive variants are shown than the library holds.
REPORTED ENDPOINT: polymerase ribozyme fitness (log ratio)
The reply should be a number, written without any unit.

Below, each entry is followed by its recorded polymerase ribozyme fitness (log ratio) result.
mutant_id="G84A G140U" result_value=-2.64
mutant_id="C32U U55A C63U C118A" result_value=-3.08
mutant_id="G84U A120U" result_value=-2.07

Ask | Look up polymerase ribozyme fitness (log ratio) for this variant: C85U G136C
Reply | -3.29

Ask | Look up polymerase ribozyme fitness (log ratio) for this variant: G86A A122U
Reply | -1.33

Ask | Look up polymerase ribozyme fitness (log ratio) for this variant: C35U U44G C85U C116G C123A
Reply | -3.89

Ask | Look up polymerase ribozyme fitness (log ratio) for this variant: C8U A60G A121C
Reply | -3.73

Ask | Look up polymerase ribozyme fitness (log ratio) for this variant: A41U A60U U144G
Reply | -0.464

Ask | Look up polymerase ribozyme fitness (log ratio) for this variant: A41C A142G U144C G152A
Reply | -3.09

Ask | Look up polymerase ribozyme fitness (log ratio) for this variant: C38U C63G A97U G143C
Reply | -3.67

Ask | Look up polymerase ribozyme fitness (log ratio) for this variant: A3C A17G C69G C116G A122G
Reply | -1.99
